# Test system: microtubules (tubulin polymer)
# Assay procedure: Radiolabeled ligand binding assays
# Condition info: test agent 4 μM; radiolabel 4.0 μM; 37° C.
Observable: Percent inhibition of radiolabel from microtubules, [3H]Paclitaxel

Fill in: Percent inhibition of radiolabel from microtubules, [3H]Paclitaxel of C=CC=CC(C)C1OC(=O)C=CC=CC(C)C(O)CC(O)C=CC(C)C(O)C(C)CC(C)CCC(O)C1C (stereo not shown) [Compound 100] is ___
0 ± 1%

Fill in: Percent inhibition of radiolabel from microtubules, [3H]Paclitaxel of C=CC=CC(C)C1OC(=O)C=CC=CC(C)C(O)CC(O)C=CC(C)C(O)C(C)CC(C)CCC(O)C1C (stereo not shown) [Compound 59] is ___
7 ± 2 (3) %

Fill in: Percent inhibition of radiolabel from microtubules, [3H]Paclitaxel of "C=C/C=C\[C@H](C)[C@H](O)[C@@H](C)[C@H](O)CC[C@H](C)C[C@H](C)[C@@H](O)[C@@H](C)/C=C\[C@@H](O)C[C@H](O)[C@H](C)/C=C/C=C\C(=O)OC" is ___
42 ± 1 (3) %

Fill in: Percent inhibition of radiolabel from microtubules, [3H]Paclitaxel of "C/C(=C\c1csc(C)n1)[C@@H]1C[C@@H]2O[C@@H]2CCC[C@H](C)[C@H](O)[C@@H](C)C(=O)C(C)(C)[C@@H](O)CC(=O)O1" is ___
53 ± 4 (4) %

Fill in: Percent inhibition of radiolabel from microtubules, [3H]Paclitaxel of C=C/C=C\[C@H](C)[C@@H]1OC(=O)/C=C\C=C\[C@@H](C)[C@@H](O)C[C@H](O)/C=C\[C@H](C)[C@H](O)[C@@H](C)C[C@@H](C)CC[C@@H](O)[C@@H]1C [dictyostatin-1, reference compound] is ___
75 ± 5 (3) %

Fill in: Percent inhibition of radiolabel from microtubules, [3H]Paclitaxel of C=CC=CC(C)C1OC(=O)C=CC=CC(C)C(O)CC(O)C=CC(C)C(O)C(C)CC(C)CCC(O)C1C (stereo not shown) [Compound 108] is ___
0 ± 1%

The origin of these recorded values is patent US7321046B2.
